Biological target: T1, soluble human FcRn (shFcRn) (human, UniProt P55899 24-297; P61769 21-119)
T1 construct: Biotinylated for the ELISA, amine-coupled to a CM5 chip for SPR; also called biotinylated shFcRn
T1 sequence (P55899 24-297 limits assumed, chain 1 of 2): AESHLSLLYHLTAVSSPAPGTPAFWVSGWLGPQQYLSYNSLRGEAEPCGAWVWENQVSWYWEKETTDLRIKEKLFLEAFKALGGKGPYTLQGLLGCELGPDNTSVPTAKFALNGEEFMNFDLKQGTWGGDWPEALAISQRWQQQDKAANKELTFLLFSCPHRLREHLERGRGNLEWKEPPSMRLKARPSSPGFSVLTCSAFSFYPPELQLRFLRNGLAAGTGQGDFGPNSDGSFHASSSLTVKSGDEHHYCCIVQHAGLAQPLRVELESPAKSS
T1 sequence (P61769 21-119 limits assumed, chain 2 of 2): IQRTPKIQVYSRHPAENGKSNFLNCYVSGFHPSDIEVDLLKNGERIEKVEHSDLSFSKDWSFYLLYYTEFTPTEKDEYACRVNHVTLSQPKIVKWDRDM
Assay: IgG competition ELISA
Bridge positions count the residues as written; N and C are the ends. Square brackets hold non-standard residues; d marks the D form. Ends that are not written are not given here. Phe(4-F) = N[C@@H](Cc1ccc(F)cc1)C(=O)O; Pen = CC(C)(S)[C@H](N)C(=O)O
PROPERTY NAME: IC50 (µM)
Please reply with the bare figure in µM and do not write the unit itself.

Please fill in: IC50 reported for QRF[Pen]TGHFGGL[Phe(4-F)]PCNGP-NH2 (disulfide 4-14; N-terminus assumed; SMILES CC(C)C[C@@H]1NC(=O)CNC(=O)CNC(=O)[C@H](Cc2ccccc2)NC(=O)[C@H](Cc2c[nH]cn2)NC(=O)CNC(=O)[C@H]([C@@H](C)O)NC(=O)[C@@H](NC(=O)[C@H](Cc2ccccc2)NC(=O)[C@H](CCCNC(=N)N)NC(=O)[C@@H](N)CCC(N)=O)C(C)(C)SSC[C@@H](C(=O)N[C@@H](CC(N)=O)C(=O)NCC(=O)N2CCC[C@H]2C(N)=O)NC(=O)[C@@H]2CCCN2C(=O)[C@H](Cc2ccc(F)cc2)NC1=O) [Peptide No. 140] = 26
